The entries below are paired with their reported IC50.
Target: GST-tagged KRAS-G12D (2-169) (Homo sapiens, UniProt P01116, G12D)
Construct: GST-tagged KRAS-G12D (2-169, Reaction Biology, MSC-11-539); purchased Reaction Biology MSC-11-539 (KRAS G12D); MSC-11-502 (SOS1cat)
Sequence (P01116 2-169 isoform P01116-2 G12D): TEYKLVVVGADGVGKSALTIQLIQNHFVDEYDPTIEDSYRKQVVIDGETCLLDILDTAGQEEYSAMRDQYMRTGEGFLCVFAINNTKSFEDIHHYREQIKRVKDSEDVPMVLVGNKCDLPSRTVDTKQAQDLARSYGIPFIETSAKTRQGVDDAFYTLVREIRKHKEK
Assay: Nucleotide exchange assay (NEA), SOS-mediated, HTRF, KRAS G12D
Format: biochemical
Details: Table 4; IC50 extracted at 30 min

# example entries with known answers
C[C@H](Oc1nc(N2C[C@H]3CC[C@@H](C2)N3)c(C#N)c(N2CC3(CCc4sc(N)c(C#N)c43)C2)n1)[C@@H]1CCCN1C | 10 to 100 nM
N#Cc1c(N2C[C@H]3CC[C@@H](C2)N3)nc(OC[C@@]23CCCN2C[C@H](F)C3)nc1N1CC2(C1)c1c(sc(N)c1C#N)CC1CC12 (stereo partly drawn) | < 10 nM
Cc1nnc(-c2nn3c(c2Cl)CN(c2nc(OC[C@@]45CCCN4C[C@H](F)C5)nc(N4CC5(CCc6sc(N)c(C#N)c65)C4)c2C#N)CCC3)n1C | < 10 nM
N#Cc1c(N)sc2c1C1(CC2)CN(c2nc(OC[C@@]34CCCN3C[C@H](F)C4)nc(N3CCCC(C#N)CC3)c2F)C1 (stereo partly drawn) | 10 to 100 nM
N#Cc1c(N2CCCn3nc(C(=O)C4CC4)c(Cl)c3C2)nc(OC[C@@]23CCCN2C[C@H](F)C3)nc1N1CC2(CCc3sc(N)c(C#N)c32)C1 | < 10 nM
CN(C)CC1(COc2nc(N3CCCn4nc(C(=O)N(C)C)c(Cl)c4C3)c(C#N)c(N3CC4(CCc5sc(N)c(C#N)c54)C3)n2)CC1(F)F (stereo not drawn) | < 10 nM
CN(C)C(=O)c1nn2c(c1Cl)CN(c1nc(OC[C@@]34CCCN3C[C@H](F)C4)nc(N3CC4(C3)C(=O)Cc3ccccc34)c1C#N)CCC2 | > 20000 nM
N#Cc1c(N)sc2c1C1(CC2)CN(c2nc(OCC3(CN4CCOCC4)CC3)nc(N3C[C@H]4CC[C@@H](C3)N4)c2F)C1 | < 10 nM
CN(CCOc1nc(N2C[C@H]3CC[C@@H](C2)N3)c(C#N)c(N2CC3(CCc4sc(N)c(C#N)c43)C2)n1)C1CCC1 | 10 to 100 nM
N#Cc1c(N2CC3COCC(C2)N3)nc(OC[C@]23CCCN2C[C@@H](F)C3)nc1N1CC2(CCc3sc(N)c(C#N)c32)C1 | 10 to 100 nM

INPUT: Give a short answer stating reported IC50 for Cn1c(-c2nn3c(c2Cl)CN(c2nc(OC[C@@]45CCCN4C[C@H](F)C5)nc(N4CC5(CCc6sc(N)c(C#N)c65)C4)c2C#N)CCC3)nc2c(F)cccc21 .
OUTPUT: < 10 nM

INPUT: Give a short answer stating reported IC50 for N#Cc1c(N2C[C@H]3CC[C@@H](C2)N3)nc(OCC2(CN3CCC(F)(F)CC3)CC2)nc1N1CC2(CCCc3sc(N)c(C#N)c32)C1 .
OUTPUT: < 10 nM

INPUT: Give a short answer stating reported IC50 for N#Cc1c(N2C[C@H]3CC[C@@H](C2)N3)nc(OCC2(CN3CCOCC3)CC2)nc1N1CC2(C=CCc3sc(N)c(C#N)c32)C1 .
OUTPUT: < 10 nM

INPUT: Give a short answer stating reported IC50 for CO/N=C(\C)c1nn2c(c1Cl)CN(c1nc(OC[C@@]34CCCN3C[C@H](F)C4)nc(N3CC4(CCc5sc(N)c(C#N)c54)C3)c1C#N)CCC2 .
OUTPUT: < 10 nM

INPUT: Give a short answer stating reported IC50 for N#Cc1c(N2C[C@H]3CC[C@@H](C2)N3)nc(OCc2ccn[nH]2)nc1N1CC2(CCc3sc(N)c(C#N)c32)C1 .
OUTPUT: < 10 nM

INPUT: Give a short answer stating reported IC50 for N#Cc1c(N2C[C@H]3CC[C@@H](C2)N3)nc(OCc2n[nH]cc2C(F)F)nc1N1CC2(CCc3sc(N)c(C#N)c32)C1 .
OUTPUT: 10 to 100 nM

INPUT: Give a short answer stating reported IC50 for N#Cc1c(N2C[C@H]3CC[C@@H](C2)N3)nc(OC[C@@]23CCCN2C[C@H](F)C3)nc1N1CC2(CCc3sc(N)c(C#N)c32)C1 .
OUTPUT: < 10 nM

INPUT: Give a short answer stating reported IC50 for CN(C)CC1(COc2nc(N3C[C@H]4CC[C@@H](C3)N4)c(C#N)c(N3CC4(CCc5sc(N)c(C#N)c54)C3)n2)COC1 .
OUTPUT: < 10 nM

INPUT: Give a short answer stating reported IC50 for CN(C)C(=O)c1nn2c(c1Cl)CN(c1nc(OC[C@@]34CCCN3C[C@H](F)C4)nc(N3CC4(C3)C(=O)CCc3ccccc34)c1C#N)CCC2 .
OUTPUT: 1000 to 20000 nM

INPUT: Give a short answer stating reported IC50 for N#Cc1c(N2CCCOCC2)nc(OC[C@@]23CCCN2C[C@H](F)C3)nc1N1CC2(CCc3sc(N)c(C#N)c32)C1 .
OUTPUT: 10 to 100 nM

INPUT: Give a short answer stating reported IC50 for Cc1nc(COc2nc(N3C[C@H]4CC[C@@H](C3)N4)c(C#N)c(N3CC4(CCc5sc(N)c(C#N)c54)C3)n2)n[nH]1 .
OUTPUT: 10 to 100 nM

INPUT: Give a short answer stating reported IC50 for CN(C)CC1(COc2nc(N3C[C@H]4CC[C@@H](C3)N4)c(C#N)c(N3CC4(CCc5sc(N)c(C#N)c54)C3)n2)CC1(F)F (mixture of isomers) .
OUTPUT: 10 to 100 nM

INPUT: Give a short answer stating reported IC50 for CO/N=C1/CCCN(c2nc(OC[C@@]34CCCN3C[C@H](F)C4)nc(N3CC4(CCc5sc(N)c(C#N)c54)C3)c2C#N)CC1 .
OUTPUT: 100 to 1000 nM

INPUT: Give a short answer stating reported IC50 for CN(C)C(=O)c1nn2c(c1Cl)CN(c1nc(OC[C@@]34CCCN3C[C@H](F)C4)nc(N3CC4(CCc5sc(N)c(C#N)c54)C3)c1F)CCC2 .
OUTPUT: < 10 nM

Cited source for all entries: patent US12145947B2
